# ASSAY_EXPLANATION: Compound was evaluated for induced thermal stabilization for compound: DNA ratio of 1:5 at 0.1 to 0.2 degrees Centigrade.
# Design: unit: °C
Values of Change in Tm greater than or equal to 10 map to rule met; values below map to rule not met.

[ask] Reported Change in Tm reaches at least 10 for `Nc1ccc2cc3ccc(N)cc3nc2c1` ?
[reply] rule met

[ask] Reported Change in Tm reaches at least 10 for `O=C(NCCN1CCCC1)c1cn2c(ccc3sc4ccccc4c(=O)c32)n1` ?
[reply] rule not met

[ask] Reported Change in Tm reaches at least 10 for `CCN(CC)CCCNC(=O)c1cn2c(ccc3sc4ccccc4c(=O)c32)n1` ?
[reply] rule met

[ask] Reported Change in Tm reaches at least 10 for `O=C(NCCN1CCOCC1)c1cn2c(ccc3sc4ccccc4c(=O)c32)n1` ?
[reply] rule not met

[ask] Reported Change in Tm reaches at least 10 for `CCOC(=O)c1cn2c(ccc3sc4ccccc4c(=O)c32)n1` ?
[reply] rule not met

[ask] Reported Change in Tm reaches at least 10 for `O=C(NCCN1CCCCC1)c1cn2c(ccc3sc4ccccc4c(=O)c32)n1` ?
[reply] rule met

[ask] Reported Change in Tm reaches at least 10 for `CN(C)CCCNC(=O)c1cn2c(ccc3sc4ccccc4c(=O)c32)n1` ?
[reply] rule met

[ask] Reported Change in Tm reaches at least 10 for `O=C1c2c(O)ccc(O)c2C(=O)c2c(NCCNCCO)ccc(NCCNCCO)c21` ?
[reply] rule met

[ask] Reported Change in Tm reaches at least 10 for `O=C(c1cn2c(ccc3sc4ccccc4c(=O)c32)n1)N1CCN(CCO)CC1` ?
[reply] rule not met
